- methodNotes: Plasma exposure in satellite group of mouse allergic rhinitis model
- Type: in vivo
- protocolConditions: Compound 2 10 mg/kg PO, 1 hr post-dose
readoutName: concentration at 1 h (nM)
Hi! Could you send only the number? It should be in nM, unit omitted.

Request: Requested field: concentration at 1 h. Item: COc1ccc(CC(=O)O)cc1Oc1ccc(NC(=O)C(C)(C)C)cc1CSC(C)(C)C
Response: 1360

* * *

- tgt: mouse DP2 (Mus musculus (Mouse), UniProt Q9Z2J6)
- Sequence (Q9Z2J6 whole entry): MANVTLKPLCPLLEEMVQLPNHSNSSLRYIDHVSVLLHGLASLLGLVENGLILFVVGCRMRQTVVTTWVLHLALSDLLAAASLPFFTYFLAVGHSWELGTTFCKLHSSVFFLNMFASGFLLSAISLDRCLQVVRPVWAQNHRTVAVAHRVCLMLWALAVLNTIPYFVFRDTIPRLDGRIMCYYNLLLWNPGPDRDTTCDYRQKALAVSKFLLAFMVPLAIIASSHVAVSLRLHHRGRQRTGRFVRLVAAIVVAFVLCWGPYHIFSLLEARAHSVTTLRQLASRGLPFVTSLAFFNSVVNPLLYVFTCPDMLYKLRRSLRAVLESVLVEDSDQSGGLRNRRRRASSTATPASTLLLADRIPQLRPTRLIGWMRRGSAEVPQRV
- methodNotes: In vitro DP2/CRTH2 radioligand ([3H]PGD2) membrane binding assay
- protocolConditions: average; 0.2% species-specific albumin; read-out: IC50, radioligand membrane binding on mouse DP2
readoutName: IC50 (nM)
The reply should be a number in nM, with the unit left off.

Request: Using the record for COc1ccc(CC(=O)O)cc1Oc1ccc(NC(=O)C(C)(C)C)cc1CSC(C)(C)C , report its IC50.
Response: 11.4
